Parameter concentration at 48 h: see the listing below.
Assay: LC-MS drug concentration in tumor xenograft tissue
Type: in vivo, nude mice
Conditions: nude, mouse, intraperitoneal, injected ip as drug-pH NPs, 75 mg/kg SCH772984, 40 mg/kg GEM, read-out: drug concentration in tumor tissues
ENDPOINT_NAME: concentration at 48 h

Nc1ccn([C@@H]2O[C@H](CO)[C@@H](O)C2(F)F)c(=O)n1 [GEM, gemcitabine]	~4 ng/g
O=C(Nc1ccc2[nH]nc(-c3ccncc3)c2c1)[C@@H]1CCN(CC(=O)N2CCN(c3ccc(-c4ncccn4)cc3)CC2)C1 [SCH 772984]	~2 ng/g

Every entry's value here was drawn from patent US20220378711A1.
